system.name: T1, recombinant cynomolgus CD33 protein (NovoProtein) (cynomolgus)
T1 construct: Bought protein; also called cyno CD33
procedure.summary: ELISA, plate coated with recombinant CD33
In this section we review reported Relative maximal binding (cyno/human) values for a set of binders.

1. anti-CD33 antibody 6C7H53 (antibody, V domains shown, VH/VL only) VH: EVQLVESGGGLVQPGGSLRLSCAGSGFTFSNYEMNWVRQAPGKGLEWVAEIRLKSNNYVTNYAASVKGRFTISRDDSKNSVYLQMNSLKTEDTGVYYCTRAGYYVPFAYWGQGTLVTVSS VL: QPVLTQSPSASASLGASVKLTCTLSSQHSTYTIEWYQQQPEKGPRYLMELKKEGSHSTGDGIPDRFSGSSSGAERYLTISSLQSEDEADYYCGVGVTIKEQFVYVFGGGTKLTVL : 0.39
2. anti-CD33 6C7 chimeric antibody (antibody, V domains shown, detected with anti-human IgG; also called 6C7 Chimeric Ab) VH: EVKLEESGGGLVQPGGSMKLSCVGSGFTFSNYCMNWVRQSPEKGLEWVAEIRLKSNNYVTNYVESVKGRFTISRDDSKSRVYLQMNNLRGEDTGFYYCTRDGYYVPFAYWGQGTLVTVSA VL: QLVLTQSSSASFSLGASAKLTCTLSSQHSTYTIEWYQQQPLKPPKYVMELKKDGSHSTGDGIPDRFSGSSSGADRYLSISNIQPEDEAIYICGVGDTIKEQFVYVFGGGTKVTVL : 0.47
3. anti-CD33 antibody 6C7H44 (antibody, V domains shown, VH/VL only) VH: EVQLVESGGGLVQPGGSLRLSCAASGFTFSEYDMLWVRQAPGKGLEWVGEIRLKSNNYVTNYAASVKGRFTISRDDSKNSVYLQMNSLKTEDTGVYYCTRAGYYVPFAYWGQGTLVTVSS VL: QPMLTQSPSASASLGASVKLTCTLSSQHSTYTIEWYQQQPGKGPRYLMELKKEGSHSTGDGIPDRFSGSSSGAERYLTISSLQSEDEADYYCGVGLTIKEQFVYVFGGGTKLTVL : 0.09
4. anti-CD33 antibody 6C7H37 (antibody, V domains shown, VH/VL only) VH: EVQLVESGGGLVQPGGSLRLSCAASGFTFSEYAMLWVRQAPGKGLEWVGEIRLKSNNYVTNYAASVKGRFTISRDDSKNSVYLQMNSLKTEDTGVYYCTRAGYYVPFTYWGQGTLVTVSS VL: QLMLTQSPSASASLGASVKLTCTLSSQHSTYTIEWYQQQPGKGPRYLMELKKEGSHSTGDGIPDRFSGSSSGAERYLTISSLQSEDEADYYCGVGHTIKEQFVYVFGGGTKLTVL : 0.45
5. anti-CD33 antibody 6C7H38 (antibody, V domains shown, VH/VL only) VH: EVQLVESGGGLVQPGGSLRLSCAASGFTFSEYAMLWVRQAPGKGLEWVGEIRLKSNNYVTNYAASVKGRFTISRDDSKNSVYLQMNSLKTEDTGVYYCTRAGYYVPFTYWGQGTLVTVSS VL: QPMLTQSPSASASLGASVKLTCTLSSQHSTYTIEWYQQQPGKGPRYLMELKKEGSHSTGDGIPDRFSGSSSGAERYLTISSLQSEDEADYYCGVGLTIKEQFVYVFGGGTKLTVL : 0.36
6. anti-CD33 antibody 6C7H45 (antibody, V domains shown, VH/VL only) VH: EVQLVESGGGLVQPGGSLRLSCAASGFTFSEYAMLWVRQAPGKGLEWVGEIRLKSNNYVTNYAASVKGRFTISRDDSKNSVYLQMNSLKTEDTGVYYCTRAGYYVPFAYWGQGTLVTVSS VL: QLMLTQSPSASASLGASVKLTCTLSSQHSTYTIEWYQQQPGKGPRYLMELKKEGSHSTGDGIPDRFSGSSSGAERYLTISSLQSEDEADYYCGVGHTIKEQFVYEFGGGTKLTVL : 0.31

As a next step, examine the binder that follows.
Request: I am curious: what Relative maximal binding (cyno/human) value has been reported for anti-CD33 antibody 6C7H46 (antibody, V domains shown, VH/VL only) VH: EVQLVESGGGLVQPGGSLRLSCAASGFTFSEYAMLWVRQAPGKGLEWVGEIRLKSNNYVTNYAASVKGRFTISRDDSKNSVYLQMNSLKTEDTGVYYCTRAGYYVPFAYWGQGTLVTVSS VL: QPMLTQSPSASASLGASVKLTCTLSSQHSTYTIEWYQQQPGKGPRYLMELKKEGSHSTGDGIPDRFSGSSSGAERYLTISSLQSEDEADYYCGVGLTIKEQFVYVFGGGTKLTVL ?
Result: 0.23

src = patent US20250270319A1
